# experiment description: modulators of AGP1-GFP expression in yeast TOR pathway, primary screen, cell-based, multiplex flow cytometry, S. cerevisiae (AID 1887);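 also: AGP1-GFP fusion strain of S. cerevisiae within a five-strain barcoded multiplex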
# test conditions: 3 h, at 10 µM, stronger effect = higher value
Records with an inconclusive call do not appear.
value type: GFP response, % of DMSO (%)
Answers are plain numbers, in %.

Some entries whose results are on file:
>>> numeric_value("CCc1cc2c(=O)c(-c3ccc(F)cc3)c(C)oc2cc1OCC(=O)O")
100
>>> numeric_value("COC(=O)c1cc(-c2ccc(C)o2)nc2ccccc12")
78.2
>>> numeric_value("Clc1ccccc1CN1CCc2sccc2C1")
119

Kindly give each listed record's GFP response, % of DMSO.
1. CC(=O)Oc1cc(C(C)C)c(OCCN(C)C)cc1C
2. CC(=O)NC1C(OCCOc2ccc(Cl)cc2Cl)OC(COC(C)=O)C(OC(C)=O)C1OC(C)=O (stereo unspecified)
3. COc1ccc([C@@H]2Sc3ccccc3N(CCN(C)C)C(=O)[C@@H]2OC(C)=O)cc1
4. CN(CCc1cnn(C)c1)Cc1nc(CC2CC2)no1
5. C=C(C)COc1ccc(-c2n[nH]c(C)c2-c2ccc(OC)cc2)c(O)c1
6. CC1(C)Cc2ccccc2C(C(Cc2ccccc2)C(N)=O)=N1 (stereo unspecified)
7. O=C(O)c1cccnc1

## Output
1: 99.9; 2: 94.5; 3: 101; 4: 105; 5: 87.7; 6: 92.7; 7: 105

## Input Value lookup for GFP response, % of DMSO; key = CC(NC(=O)c1ccc(OC2CCN(Cc3ccccn3)CC2)cc1)c1ccccc1 (stereo unspecified)
## Output 100

###

# experiment description: modulators of CIT2-GFP expression in yeast, confirmation, S. cerevisiae, GFP fusion, cherry picks, mother/daughter gates (AID 2274)
# test conditions: S. cerevisiae CIT2-GFP strain, flow cytometry, 3 h; measured here: mother cell gate; at 10 µM; stronger effect = higher value
Provide the reported GFP response, % of DMSO of each item.
Answers are plain numbers, in %.

Some entries whose results are on file:
>>> numeric_value("Cc1ccc(C(C[N+](=O)[O-])n2nc(C)cc2C)cc1 (stereo not drawn)")
87.8
>>> numeric_value("COc1ccc(C(=O)NC(=S)Nc2ccc(CN3CCOCC3)cc2)cc1")
98.1
>>> numeric_value("COc1ccc(OCC(O)CNC(=O)/C=C/c2cccc([N+](=O)[O-])c2)cc1 (stereo not drawn)")
104
>>> numeric_value("O=C(N/N=C/c1c(Cl)cccc1Cl)c1ccc(F)cc1")
102
>>> numeric_value("Cc1ccc(Sc2ncnc3onc(C)c23)cc1")
102

Kindly give each listed record's GFP response, % of DMSO.
1. COc1ccccc1N1CCN(C(=O)c2ccccc2Oc2ccccc2)CC1
2. CC(C)c1nnc(NC(=O)c2nc(S(=O)(=O)Cc3ccc(F)cc3)ncc2Cl)s1
3. COc1ccc(N2C(=O)c3cccc4cccc(c34)C2=O)nn1

## Output
1: 93.8; 2: 100; 3: 91.2

###

Provide the reported percent of DMSO control GFP of each item.
# experiment description: yeast TOR pathway RPL19A-GFP modulators, primary screen, cell-based, S. cerevisiae, multiplex flow cytometry (AID 1862);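 also: lower values mimic rapamycin by blocking the RPL19A rise seen in DMSO cells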
# test conditions: S. cerevisiae RPL19A-GFP strain, flow cytometry fluorescence, 3 h; at 10 µM; stronger effect = lower value
Records with an inconclusive call do not appear.
One number for each entry, in %.

Some entries whose results are on file:
>>> numeric_value("CCN(Cc1ccncc1)Cc1nc(Cc2ccccc2Cl)no1")
95.8
>>> numeric_value("CC12CCC(C(=O)N3CCCCC3)([C@H](Br)C1=O)C2(C)C (some centres undefined)")
90.6
>>> numeric_value("O=C1CCCN1CCCn1cnc2c([nH]c3ccc(F)cc32)c1=O")
105
>>> numeric_value("CC(=O)Oc1ccc(C(=O)O)cc1OC(C)=O")
98
>>> numeric_value("Cn1c2ccccc2c2cc(/C=C(\\NC(=O)c3ccccc3)C(=O)O)ccc21")
95.6

Kindly give each listed record's percent of DMSO control GFP.
1. COc1ccc(CN(CCN(C)C)c2ccccn2)cc1
2. COc1ccc(NC(=O)C2C(=O)N(CCO)C3(C)CC2c2ccccc2O3)cc1 (centres undefined)
3. C[C@]12CC[C@@H]3c4cc(O)c(O)cc4CC[C@H]3[C@@H]1CC[C@@H]2O
4. O=C1NC2(Nc3ccccc31)C(=O)Nc1ccc(Br)cc12 (centres undefined)
5. COc1ccc(C2N3CC4(C)CN2CC(C)(C3)C4)cc1OC (centres undefined)

## Output
102
99.6
98.8
91.7
103

Kindly give each listed record's percent of DMSO control GFP.
1. C[C@H]1C[C@H]2[C@@H]3CCC4=CC(=O)C=C[C@]4(C)[C@@]3(Cl)[C@@H](O)C[C@]2(C)[C@@]1(O)C(=O)CO
2. Cc1ccccc1OCC(O)CN1CCN(C)CC1 (centres undefined)
3. CNC[C@H](O)c1ccc(O)c(O)c1
4. CN(C)C(=O)C12CCC(C)(c3nc4ccccc4nc31)C2(C)C (centres undefined)
5. CC1(C)NC(C(=O)O)Cc2c1[nH]c1ccccc21 (centres undefined)
6. O=C(CCN1CCC(c2ccccc2)C1)c1ccc2c(c1)OCCO2 (centres undefined)
7. CC(C)NC(=O)c1ccc(C(C)C)cc1

## Output
1. 101
2. 97.9
3. 107
4. 104
5. 112
6. 102
7. 98.4

Kindly give each listed record's percent of DMSO control GFP.
1. CCc1c(C)c2ccc(OCC(=O)OC(C)C)c(C)c2oc1=O
2. CC(=O)Nc1ccc(OS(=O)(=O)c2c(C)cc(C)cc2C)cc1

## Output
98.1
99
